B1: library; numbered along this chain (parent)
chain: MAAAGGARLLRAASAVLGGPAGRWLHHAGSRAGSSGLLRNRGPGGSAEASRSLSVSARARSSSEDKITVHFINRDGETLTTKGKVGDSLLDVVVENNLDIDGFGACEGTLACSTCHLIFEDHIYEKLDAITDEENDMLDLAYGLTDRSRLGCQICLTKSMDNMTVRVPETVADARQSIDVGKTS

Variants of: B1
Experiment: scaled log2 fold change in cell abundance, elesclomol vs control (0 = silent mean, 1 = nonsense mean) (scaled log2 ratio); higher = higher viability under elesclomol (loss of FDX1 cuproptosis function);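 note: variant abundance is its share of total variant reads in each endpoint sample, from next-generation sequencing of the integrated ORF PCR-amplified out of genomic DNA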
Conditions: with ABC1 FDX1 KO; elesclomol 5 nM; glucose 10 mM; 14 days
assay readout: scaled log2 fold change

[
  {
    "variant key": "G102Y",
    "result": 0.333
  },
  {
    "variant key": "D128R",
    "result": -1.26
  },
  {
    "variant key": "L53N",
    "result": 0.146
  },
  {
    "variant key": "L150V",
    "result": 0.447
  },
  {
    "variant key": "R147L",
    "result": -1.37
  },
  {
    "variant key": "M163N",
    "result": 0.51
  },
  {
    "variant key": "R39C",
    "result": -0.483
  },
  {
    "variant key": "S54M",
    "result": -0.399
  },
  {
    "variant key": "G181V",
    "result": -0.396
  },
  {
    "variant key": "G181Y",
    "result": 0.093
  },
  {
    "variant key": "R74F",
    "result": 0.533
  }
]
